Assay: in vivo
Details: male, beagle, dog, iv, 11 mg/kg, Mean Cmax
recorded.metric: Cmax (ng/mL)
Reply with just the number (in ng/mL).

Task: Quick one: Cmax of CC1CC(N(C)C)C(O)C(O[C@@H]2[C@@H](C)C(=O)[C@](C)(F)C(=O)O[C@H](CCF)[C@@]3(C)OC(=O)N[C@@H]3[C@@H](C)C(=O)[C@H](C)C[C@@]2(C)OC/C=C/c2ccc3cccnc3c2)O1 (stereo partly shown) ?
Result: 6000

---

Entries annotated with measured Plasma Cmax
Assay: Pharmacokinetics in the mouse, plasma and lung tissue
Assay type: in vivo
Conditions: mouse plasma, oral gavage 10 mg/kg
Respond with the bare value in ng/mL.

Use the examples below as a reference point.
- CC1CC(N(C)C)C(O)C(O[C@@H]2[C@@H](C)C(=O)[C@@H](C)C(=O)O[C@H](CCF)[C@@]3(C)OC(=O)N[C@@H]3[C@@H](C)C(=O)[C@H](C)C[C@@]2(C)OC/C=C/c2cnc3ccccc3c2)O1 (stereo partly shown): 400
- CC1CC(N(C)C)C(O)C(O[C@@H]2[C@@H](C)C(=O)[C@@H](C)C(=O)O[C@H](CCF)[C@@]3(C)OC(=O)N[C@@H]3[C@@H](C)C(=O)[C@H](C)C[C@@]2(C)OC/C=C/c2ccc3nccnc3c2)O1 (stereo partly shown): 210
- CC1CC(N(C)C)C(O)C(O[C@@H]2[C@@H](C)C(=O)[C@](C)(F)C(=O)O[C@H](CCF)[C@@]3(C)OC(=O)N[C@@H]3[C@@H](C)C(=O)[C@H](C)C[C@@]2(C)OC/C=C/c2ccc3nccnc3c2)O1 (stereo partly shown): 670

// below: Plasma Cmax requested for another molecule
Task: Given the molecule CC1CC(N(C)C)C(O)C(O[C@@H]2[C@@H](C)C(=O)[C@](C)(F)C(=O)O[C@H](CCF)[C@@]3(C)OC(=O)N[C@@H]3[C@@H](C)C(=O)[C@H](C)C[C@@]2(C)OC/C=C/c2cnc3ccccc3c2)O1 (stereo partly shown) , what is its reported Plasma Cmax?
Result: 1000
